These measurements were taken from patent US20140288071A1.

- Measured on: human notum pectinacetyltransferase (Homo sapiens)
- Construct: made in house; conditioned medium used
- Assay comment: Reporter assay (CellSensor LEF/TCF-bla FreeStyle 293F cells, Wnt3a and notum conditioned media)
- Format: cell-based
- Protocol: Plasmid containing human notum pectinacetyltransferase in pcDNA3.1(+) vector was transfected into HEK293 cells and clones were selecting by growing in presence of 400 ug/mL of G418. […] L cells overexpressing and secreting Wnt3a into the conditioned media were purchased from ATCC. The assay protocol was as follows. […] Cells were counted and suspended at 0.75 million cells per mL. […]
pEC50: −log10 of the molar value.
Quantity kind: pEC50

So what does the record say about pEC50 for `CCCOC(=O)CSc1ncnc2sc(C)c(C)c12` ?
> 6.00

So what does the record say about pEC50 for `Cc1sc2ncnc(SCC(N)=O)c2c1C` ?
> 6.00

----------
Consider compounds characterized by their IC50 with human notum pectinacetyltransferase (Homo sapiens, UniProt Q6P988).
Sequence (Q6P988 20-496): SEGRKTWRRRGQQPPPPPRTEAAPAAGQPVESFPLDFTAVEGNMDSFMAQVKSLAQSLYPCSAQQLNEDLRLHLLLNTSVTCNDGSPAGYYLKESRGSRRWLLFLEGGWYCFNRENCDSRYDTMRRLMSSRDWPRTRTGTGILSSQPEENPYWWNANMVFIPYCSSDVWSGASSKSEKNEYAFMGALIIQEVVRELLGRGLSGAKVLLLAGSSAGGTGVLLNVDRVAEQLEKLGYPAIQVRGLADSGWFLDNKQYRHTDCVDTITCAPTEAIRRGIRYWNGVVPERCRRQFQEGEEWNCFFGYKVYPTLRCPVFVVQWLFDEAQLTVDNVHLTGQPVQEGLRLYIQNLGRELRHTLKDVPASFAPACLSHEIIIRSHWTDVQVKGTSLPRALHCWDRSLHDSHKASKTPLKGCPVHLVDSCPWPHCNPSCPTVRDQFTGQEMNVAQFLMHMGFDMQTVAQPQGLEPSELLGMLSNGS

CCNC(=O)CSc1ncnc2sc(C)c(Cl)c12; < 0.025 µM
COC(=O)CSc1ncnc2c(C)c(Cl)sc12; < 0.025 µM
COC(=O)CSc1ncnc2sc(C3CC3)c(C)c12; < 0.025 µM
Cc1c(Cl)sc2c(SCC(=O)O)ncnc12; < 0.025 µM
Cc1csc2c(SCC(=O)O)ncnc12; < 0.25 µM
Cc1sc2ncnc(SCC(=O)NO)c2c1C; < 0.025 µM

So what does the record say about IC50 for `Cc1sc2ncnc(SCC(=O)OC(C)C)c2c1Cl` ?
< 0.025 µM

----------
- Measured on: human notum pectinacetyltransferase (Homo sapiens, UniProt Q6P988)
- Construct: conditioned medium used
- Assay comment: Reporter assay (CellSensor LEF/TCF-bla FreeStyle 293F cells, Wnt3a and notum conditioned media)
Quantity kind: EC50

Cc1c(Cl)sc2c(SCC(=O)NCCN3CCCCC3)ncnc12; < 1000 nM
Cc1c(Cl)sc2c(SCC(=O)O)ncnc12; < 1000 nM
Cc1cc(NC(=O)CSc2ncnc3sc(C)c(C)c23)no1; < 1000 nM

Request: EC50, test system human notum pectinacetyltransferase (Homo sapiens, UniProt Q6P988), entry `CCc1sc2ncnc(SCC(=O)O)c2c1Br`
< 1000 nM

Request: EC50, test system human notum pectinacetyltransferase (Homo sapiens, UniProt Q6P988), entry Cc1sc2ncnc(SCC(=O)NC(C)CO)c2c1Cl (stereo not shown)
< 5000 nM

Request: EC50, test system human notum pectinacetyltransferase (Homo sapiens, UniProt Q6P988), entry `Cc1sc2ncnc(SCC(=O)N3Cc4ccccc4C3)c2c1C`
< 10000 nM

Request: EC50, test system human notum pectinacetyltransferase (Homo sapiens, UniProt Q6P988), entry `Cc1sc2ncnc(SCC(=O)O)c2c1C1CC1`
< 5000 nM

----------
- Measured on: human notum pectinacetyltransferase (Homo sapiens, UniProt Q6P988)
- Construct: conditioned medium used
- Assay comment: Reporter assay (CellSensor LEF/TCF-bla FreeStyle 293F cells, Wnt3a and notum conditioned media)
Quantity kind: EC50

Cc1c(C2CC2)sc2ncnc(SCC(=O)O)c12; < 5000 nM

So what does the record say about EC50 for `Cc1sc2ccnc(SCC(=O)O)c2c1Cl` ?
< 5000 nM

So what does the record say about EC50 for `Cc1cc2c(SCC(=O)O)ncnc2s1` ?
< 10000 nM

So what does the record say about EC50 for `O=C(O)CSc1ncnc2sc3c(c12)CCC3` ?
< 5000 nM

So what does the record say about EC50 for Cc1sc2ncnc(SCC(=O)NOC3CCCCO3)c2c1C (stereo not drawn) ?
< 1000 nM
